target: PRMT5 (Homo sapiens, UniProt O14744); construct: purchased Viva (custom protein); assay: PRMT5 biochemical IC50 assay with MTA as cofactor; conditions: PRMT5, MTA as cofactor; read-out: MTA IC50
Sequence (O14744 whole entry): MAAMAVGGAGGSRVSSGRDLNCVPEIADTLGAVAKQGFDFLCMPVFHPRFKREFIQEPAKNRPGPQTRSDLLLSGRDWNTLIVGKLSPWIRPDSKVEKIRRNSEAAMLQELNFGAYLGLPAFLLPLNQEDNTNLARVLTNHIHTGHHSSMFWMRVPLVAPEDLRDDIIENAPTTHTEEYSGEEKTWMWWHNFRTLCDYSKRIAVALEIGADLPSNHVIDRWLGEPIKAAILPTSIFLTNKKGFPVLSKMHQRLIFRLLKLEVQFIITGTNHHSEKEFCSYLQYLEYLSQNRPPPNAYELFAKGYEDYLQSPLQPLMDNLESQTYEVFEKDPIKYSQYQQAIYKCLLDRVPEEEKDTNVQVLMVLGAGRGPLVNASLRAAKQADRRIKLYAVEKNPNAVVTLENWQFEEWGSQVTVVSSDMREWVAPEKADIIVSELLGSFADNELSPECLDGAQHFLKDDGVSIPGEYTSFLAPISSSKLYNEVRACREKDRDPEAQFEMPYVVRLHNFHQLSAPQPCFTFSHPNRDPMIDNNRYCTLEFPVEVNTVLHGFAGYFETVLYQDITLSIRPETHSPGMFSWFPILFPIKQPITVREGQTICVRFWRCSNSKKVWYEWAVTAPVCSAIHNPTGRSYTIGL
Sequence (Q9BQA1 whole entry partner): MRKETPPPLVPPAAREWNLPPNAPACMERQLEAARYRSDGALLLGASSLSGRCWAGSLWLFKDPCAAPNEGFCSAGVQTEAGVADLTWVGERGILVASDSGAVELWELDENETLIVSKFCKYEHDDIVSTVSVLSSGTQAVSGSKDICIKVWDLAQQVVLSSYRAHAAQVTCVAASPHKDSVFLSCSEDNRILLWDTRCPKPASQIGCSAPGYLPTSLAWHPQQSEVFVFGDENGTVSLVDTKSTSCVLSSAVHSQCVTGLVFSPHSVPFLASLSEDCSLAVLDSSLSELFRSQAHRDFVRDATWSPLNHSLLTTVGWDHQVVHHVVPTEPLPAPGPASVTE
observed-property: IC50

Some solved entries appear below for comparison.
{"columns": ["molecule", "val"],
 "data": [
  ["C[C@@H]1CC[C@@H](c2ccc(Cl)cc2)N(C(=O)C(=O)Nc2cncc(C(N)=O)c2)C1 (single isomer, unassigned) [Compound 570]", "< 50 nM"],
  ["Cc1cccc([C@@H]2CC[C@@H](C)CN2C(=O)C(=O)Nc2cncc(C(N)=O)c2)c1 (single isomer, unassigned)", "> 500 nM"]
]}

Value wanted: IC50 (PRMT5 (Homo sapiens, UniProt O14744)) of entry CCc1cc(NC(=O)C(=O)N2C[C@H](C)C(F)(F)C[C@H]2c2ccc(C)nc2)cnc1N (single isomer, unassigned)
> 500 nM

Value wanted: IC50 (PRMT5 (Homo sapiens, UniProt O14744)) of entry C[C@@H]1CC[C@@H](c2cccc(F)c2)N(C(=O)C(=O)Nc2cncc(C(N)=O)c2)C1 (racemic)
< 50 nM

Value wanted: IC50 (PRMT5 (Homo sapiens, UniProt O14744)) of entry CNc1ccc([C@@H]2CC[C@@H](C)CN2C(=O)C(=O)Nc2cncc(C(N)=O)c2)cn1 (single isomer, unassigned) [Compound 443]
< 50 nM

Value wanted: IC50 (PRMT5 (Homo sapiens, UniProt O14744)) of entry Cc1cc(NC(=O)C(=O)N2C[C@@H](C)CC[C@@H]2c2ccc3sc(-c4cccnc4)nc3c2)cnc1N (single isomer, unassigned)
< 50 nM

----------
Items are presented alongside their recorded pIC50.
target: PRMT5 (Homo sapiens, UniProt O14744); construct: purchased Viva (custom protein); assay: PRMT5 biochemical IC50 assay with no cofactor; conditions: PRMT5, no cofactor; read-out: No Cofactor/rel IC50
pIC50: −log10 of the molar value.

Some solved entries appear below for comparison.
{"columns": ["compound", "system-name", "observed-property", "val"],
 "data": [
  ["Cc1cc(NC(=O)C(=O)N2C[C@@H](C)CC[C@@H]2c2cccc(C(F)(F)F)c2)cnc1N (single isomer, unassigned) [Compound 507]", "PRMT5 (Homo sapiens, UniProt O14744)", "pIC50", "< 6.30"],
  ["Cc1ccc([C@H]2CC(F)(F)[C@H](C)CN2C(=O)C(=O)Nc2cncc(C(N)=O)c2)cn1 (single isomer, unassigned) [Compound 974]", "PRMT5 (Homo sapiens, UniProt O14744)", "pIC50", "6.30 to 7.30"],
  ["Cc1ccc([C@@H]2CC[C@@H](C)CN2C(=O)C(=O)Nc2cncc(C(N)=O)c2)cc1O (racemic) [Compound 554]", "PRMT5 (Homo sapiens, UniProt O14744)", "pIC50", "6.30 to 7.30"],
  ["CCc1cc(NC(=O)C(=O)N2C[C@H](C)CC[C@H]2c2ccc(-c3cncs3)cc2)cnc1N (single isomer, unassigned) [Compound 841]", "PRMT5 (Homo sapiens, UniProt O14744)", "pIC50", "> 7.30"],
  ["COc1cc([C@H]2CC[C@H](C)CN2C(=O)C(=O)Nc2cncc(C(N)=O)c2)ccn1 (single isomer, unassigned) [Compound 533]", "PRMT5 (Homo sapiens, UniProt O14744)", "pIC50", "< 6.30"]
]}

Query (compound): CCc1cc(NC(=O)C(=O)N2C[C@H](C)CC[C@H]2c2ccc3c(c2)CCC(=O)N3)cnc1N (single isomer, unassigned) [Compound 720] ; field requested: pIC50
> 7.30

Query (compound): C[C@@H]1C[C@H](F)[C@@H](c2ccc(F)cc2)N(C(=O)C(=O)Nc2cncc(C(N)=O)c2)C1 (racemic) [Compound 879] ; field requested: pIC50
6.30 to 7.30

Query (compound): Cc1cc([C@H]2CC[C@H](C)CN2C(=O)C(=O)Nc2cnc(N)c(C)c2)ccc1O (single isomer, unassigned) [Compound 551] ; field requested: pIC50
< 6.30

----------
target: PRMT5 (Homo sapiens); construct: purchased Viva (custom protein); experiment: PRMT5 biochemical IC50 assay with no cofactor; conditions: PRMT5, no cofactor; read-out: No Cofactor/rel IC50
observed-property: IC50

Some solved entries appear below for comparison.
{"columns": ["compound", "observed-property", "val"],
 "data": [
  ["Cc1cc(NC(=O)C(=O)N2C[C@@H](C)CC[C@@H]2c2ccc(NS(C)(=O)=O)nc2)cnc1N (single isomer, unassigned)", "IC50", "> 500 nM"],
  ["Cc1cc(NC(=O)C(=O)N2CCCC[C@@H]2C(C)C)cnc1N (single isomer, unassigned)", "IC50", "> 500 nM"],
  ["C[C@@H]1CC[C@@H](c2ccc(N)cc2)N(C(=O)C(=O)Nc2cncc(C(N)=O)c2)C1 (single isomer, unassigned)", "IC50", "< 50 nM"]
]}

From here, focus on the item given below.
Query (compound): CCOc1ncc(NC(=O)C(=O)N2C[C@@H](C)CC[C@@H]2c2ccccc2)cc1C(N)=O (racemic) [Compound 738] ; field requested: IC50
50 to 500 nM

----------
Items are presented alongside their recorded IC50.
molecular target: PRMT5 (Homo sapiens); construct: purchased Viva (custom protein); experiment: PRMT5 biochemical IC50 assay with no cofactor; settings: PRMT5, no cofactor; read-out: No Cofactor/rel IC50

{"columns": ["compound", "system-name", "IC50"],
 "data": [
  ["COc1ncc(NC(=O)C(=O)N2C[C@H](C)CC[C@H]2c2ccc3c(c2)CCC(=O)N3)cc1C(N)=O (single isomer, unassigned)", "PRMT5 (Homo sapiens)", "< 50 nM"],
  ["Cc1cc(NC(=O)C(=O)N2C[C@@H](C)CC[C@@H]2[C@@H]2CCC[C@@H](O)C2)cnc1N (single isomer, unassigned)", "PRMT5 (Homo sapiens)", "> 500 nM"],
  ["C[C@H]1CC[C@H](C2CCC2)N(C(=O)C(=O)Nc2cncc(C(N)=O)c2)C1 (single isomer, unassigned)", "PRMT5 (Homo sapiens)", "50 to 500 nM"],
  ["Cc1cc(NC(=O)C(=O)N2C[C@@H](C)CC[C@@H]2c2cc(F)c(F)c(F)c2)cnc1N (single isomer, unassigned)", "PRMT5 (Homo sapiens)", "> 500 nM"]
]}

Query (compound): C[C@@H]1CC[C@@H](c2cc(Cl)cc(Cl)c2)N(C(=O)C(=O)Nc2cncc(C(N)=O)c2)C1 (single isomer, unassigned) [Compound 490] ; field requested: IC50
> 500 nM

Query (compound): C[C@H]1CC[C@H](c2ccc(Cl)c(Cl)c2)N(C(=O)C(=O)Nc2cncc(C(N)=O)c2)C1 (single isomer, unassigned) ; field requested: IC50
50 to 500 nM

----------
target: PRMT5 (Homo sapiens); construct: purchased Viva (custom protein); test: PRMT5 biochemical IC50 assay with SAM as cofactor; conditions: PRMT5, SAM as cofactor; read-out: SAM IC50
pIC50: −log10 of the molar value.
observed-property: pIC50

Some solved entries appear below for comparison.
{"columns": ["compound", "val"],
 "data": [
  ["Cc1cc(NC(=O)C(=O)N2C[C@@H](C)CC[C@@H]2c2ccc3sc(C4CCN(C5CC5)CC4)nc3c2)cnc1N [Compound 1181]", "> 7.30"],
  ["COc1ncc(NC(=O)C(=O)N2C[C@H](C)CC[C@H]2c2ccc(-c3cncs3)cc2)cc1C(N)=O (single isomer, unassigned) [Compound 830]", "6.30 to 7.30"]
]}

From here, focus on the item given below.
Query (compound): Cc1cc(NC(=O)C(=O)N2C[C@@H](C)CC[C@@H]2c2ccc3sccc3c2)cnc1N (single isomer, unassigned) [Compound 634] ; field requested: pIC50
> 7.30

----------
molecular target: PRMT5 (Homo sapiens, UniProt O14744); construct: purchased Viva (custom protein); assay: PRMT5 biochemical IC50 assay with MTA as cofactor; details: PRMT5, MTA as cofactor; read-out: MTA IC50
pIC50: −log10 of the molar value.
observed-property: pIC50

Query (compound): NC(=O)c1cncc(NC(=O)C(=O)N2CCC3CCCCCC3C2)c1 (racemic) [Compound 133] ; field requested: pIC50
6.30 to 7.30

Query (compound): CCc1cc(NC(=O)C(=O)N2C[C@@H](C)CC[C@@H]2c2ccc(N3CCN(C)[C@H](C)C3)nc2)cnc1N (single isomer, unassigned) [Compound 1263] ; field requested: pIC50
> 7.30

Query (compound): Cc1cc(NC(=O)C(=O)N2C[C@@H](C)CC[C@@H]2c2ccncc2)cnc1N (single isomer, unassigned) [Compound 609] ; field requested: pIC50
< 6.30

Query (compound): Cc1cc(NC(=O)C(=O)N2C[C@H](C)CC[C@H]2c2cccc(S(C)(=O)=O)c2)cnc1C (racemic) [Compound 648] ; field requested: pIC50
6.30 to 7.30
